Think of 80 °C as a floor: if melting point stands on it or above, it is YES; beneath it, NO.

Consider the worked cases shown below.
CCCCOC(=O)C(C)Oc1ccc(Oc2ccc(C(F)(F)F)cn2)cc1 (stereo not drawn) : NO
COc1cc(C=CC(=O)O)ccc1OC(C)=O : YES
CC(=O)Nc1ccc(C=CC(=O)c2ccccc2)cc1 : YES
N#CCCCCCCCCC#N : NO
Cc1onc(-c2c(Cl)cccc2Cl)c1C(=O)O : YES
C#CC(C)(CC)OC(N)=O (stereo not drawn) : NO
Cc1ccc(C(=O)/C=C/c2ccc(-c3cccc([N+](=O)[O-])c3)o2)o1 : YES
COc1ccc(-c2ccc(S(=O)(=O)NC(Cc3ccccc3)C(=O)O)cc2)cc1 (stereo not drawn) : YES

# input Threshold query (melting point >= 80 °C) on O=[N+]([O-])c1ccc(C2Nn3c(nnc3-c3cccc([N+](=O)[O-])c3)S2)cc1 (stereo not drawn)
# output YES

# input Threshold query (melting point >= 80 °C) on NC(=O)OCCCl
# output NO

# input Threshold query (melting point >= 80 °C) on Nc1ccc(Cl)c(C(F)(F)F)c1
# output NO

# input Threshold query (melting point >= 80 °C) on CNC(=O)Oc1ccc(SC)c(C)c1
# output YES

# input Threshold query (melting point >= 80 °C) on O=C1/C(=C/c2ccc([N+](=O)[O-])cc2)SC(=S)N1CN(CCCl)CCCl
# output YES

====

parameter: melting point

Example molecules with recorded melting point:
O=C(O)CSCCOc1ccccc1 : 49 to 52 °C
Cn1nc(-c2cccs2)cc1C(=O)O : 173 to 174 °C
Oc1n[nH]c2nc3ccccc3nc12 : 304 to 305 °C

The recorded melting point for c1ccc2c(C3CCNCC3)c[nH]c2c1 is 222 to 223 °C

The recorded melting point for O=C(CBr)c1ccco1 is 34 °C

The recorded melting point for O=C1CC2C(CC(O)C2CO)O1 (single isomer, unassigned; (-)) is 114 to 118 °C

The recorded melting point for CN(C)S(=O)(=O)c1cccc(C(=O)c2ccccc2)c1 is 82 to 84 °C

The recorded melting point for O=CN(O)CC(=O)O is 120 °C

====

parameter: melting point

Example compounds with recorded melting point:
COC(=O)Cc1cccc(OCc2ccccc2)c1 : 34 to 37 °C
COC(=O)CCC(C)C1CCC2C3C(O)C(O)C4CCCCC4(C)C3CCC12C (stereo not drawn) : 120 to 121 °C

// switching to the query compound
The recorded melting point for C#CC1(O)CCC2C3CC=C4C=C(C(C)(C)C(=O)O)CCC4(C)C3CCC21C (stereo not drawn) is 257 to 260 °C

====

Each entry below carries its reported melting point.

Example compounds with recorded melting point:
Cc1nc(-c2ccc(C(=O)Cl)s2)cs1 : 108 to 112 °C
COC(=O)c1ccc(OC)c(OC2CCCC2)c1 : 59 to 61 °C
O=c1occo1 : 19 to 22 °C

The recorded melting point for O=C1OC(=O)c2cc([N+](=O)[O-])cc3cccc1c23 is 247 to 254 °C

====

Each entry below carries its reported melting point.

The recorded melting point for Nc1cc(O)nc(N)n1 is 285 to 286 °C

The recorded melting point for O=C(O)c1cn(C2CC2)c2cc(Cl)c(F)cc2c1=O is 239 to 244 °C

The recorded melting point for CC(=O)OC1C2=C(C(=O)C(O)C3(CC3C)C2=O)C2(C)CCC(C)=C(C)C2C1O (centres undefined) is 177 to 178 °C

The recorded melting point for Ic1cccc(Cn2cncn2)c1 is 53 to 55 °C

Attribution: a melting point compilation (Tetko et al.)
